- System: UO-31 renal
- Assay Info: NCI-60 one-dose screen, 48 h
- Run Conditions: 10 µM unless noted
About 83,000 compounds went through this panel and 20% of them were active in at least one assay; those are over-represented in the sample as a whole. Calls of active or inactive are those of the source. Rule for the calls: active = growth percent below 10; inactive = the rest.
Possible outcomes: T for active, F for inactive

> print(dat)
                                    molecule  cat
 1   O=C1NC(=S)S/C1=C\c1cccc([N+](=O)[O-])c1    F
 2  CCOC(=O)c1cn2c3c(cc(F)cc3c1=O)C(CC)c1ccccc1C2 (stereo unspecified)    T
 3  Cc1nn2c(-c3nc4ccc(Cl)cc4[nH]3)c(-c3ccc(F)cc3)nc2s1    F
 4  CCN1CCN(c2ccc(Nc3ncc4ccc5ncn(C(C)C)c5c4n3)nc2)CC1    T
 5  O=C(c1ccccc1)C(Br)C(Br)c1cccc([N+](=O)[O-])c1 (stereo unspecified)    T
 6          COC(=O)c1ccc(C(=O)Nc2ccccc2N)cc1    F
 7  CCCCCn1c(=N)n(CC(O)COc2cccc(C)c2)c2ccccc21 (stereo unspecified)    T
 8  O=c1c2c(=NCCN3CCCC3)cc3c(=O)n(CCCN4CCOCC4)c(=O)c4ccc(c(O)n1CCCN1CCOCC1)c2c4-3    T
 9   CN1CCN(C(=O)OCCOCCOC(=O)N2CCN(C)CC2)CC1    F
10  COc1cccc2c(=O)c3c(sc12)c(NCCN(C)C)nc1ccccc13    F
11  Cc1cccc2c(=O)c3c(sc12)c(NCCNCCO)nc1ccccc13    F
12  Cc1ccccc1-n1nnc(C(=O)Nc2ccc(-c3ccccc3)cn2)c1C    F
13  COc1ccc(/C=C2\CN(Cc3cn(CCCNc4ccnc5cc(Cl)ccc45)nn3)C/C(=C\c3ccc(OC)c(OC)c3)C2=O)cc1OC    F
14  CCCOC(=O)c1ccc2c(c1)[N+](=O)C(C(=O)c1ccccc1)=C(C(F)(F)F)[N+]2=O    T
15  O=C1CC2c3cc(-c4cc5ccccc5o4)ccc3CCN2C(=O)N1c1ccccc1 (stereo unspecified)    F
16    COc1cc2oc(-c3ccc(O)cc3)cc(=O)c2c(O)c1I    F
17     COc1ccc(OC2=CC(=O)c3ccc(C)nc3C2=O)cc1    F
18  c1ccc(-c2nc(N3CCOCC3)c3c4c(sc3n2)CCCCCC4)nc1    F
19  CCCCc1ccc(C(O)(CCN2CC3CCC(CC3)C2)c2ccccc2)cc1 (stereo unspecified)    F
20  O=[N+]([O-])c1ccc2nc(N/N=C/c3ccc(O)cc3)sc2c1    F
21  O=C1NC(=O)C2(CCCC2C(=O)O)N1 (stereo unspecified)    F
22   O=c1[nH]c(-c2ccccn2)nc2sc3c(c12)CCCCCC3    F
23  c1ccc(-c2n(Cc3ccc4ccccc4c3)c3ccccc3[n+]2Cc2ccc3ccccc3c2)cc1    T
24  CN(C)C(=S)SCN1C(=O)c2ccc([N+](=O)[O-])cc2S1(=O)=O    F
25       Brc1ccccc1Nc1ccc2nnc(-c3ccncc3)n2n1    F
26  COc1ccc(Nc2[nH]n(C3=Nc4ccccc4Sc4ccccc43)c(=O)c2C#N)cc1    F
27  N#Cc1ccc(C(F)(F)F)nc1N1CCC(C(=O)Nc2ccc(Cl)cc2)CC1    F
28              COc1ccc(C2OCC(C)(C)CO2)cc1OC    F
29  COc1c(O)c2c3c(c1OC)-c1ccccc1CC3N(S(=O)(=O)c1ccc(C)cc1)CC2 (stereo unspecified)    F
30  O=C(c1ccc2ncc(-c3nc(NC4CC4)ncc3F)n2c1)N1CCOCC1    T
31  COC(=O)c1c2c(c(C)[n+]([O-])c1C)C(=O)C=C(NCc1cccc(Cl)c1)C2=O    T
32                      CSc1ccc(OC(C)=O)cc1C    F
33  O=C1C(OCCOc2ccccc2)=C(OCCOc2ccccc2)C(=O)c2ccccc21    F
34  N#CC1=C(N)Oc2cc(N)ccc2C1c1ccc(F)cc1 (stereo unspecified)    F
35                   CSC1=CC(=O)c2ccccc2C1=O    F
36  Oc1ccc2ccccc2c1C1NN=C(c2ccccc2)S1 (stereo unspecified)    T
